tested on: HEK293T; assay: median enrichment of reporter reads in eGFP-reduced (low/intermediate) vs eGFP-high sorted cells (eGFP-extension fusion abundance) (ratio); higher = stronger loss of eGFP-fusion protein abundance (more destabilising extension);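 further: lentiviral eGFP-IRES-mCherry reporter pool sorted by FACS 96 h post-transduction, gated on mCherry-high cells, Illumina read counts normalized per million, median across four biological replicates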
propertyLabel: median enrichment
In your answer, state the number alone without any accompanying words.

Some solved cases for reference:
In [3]: df
Out[3]:
                                  substance      propertylabel  measurednumber
0                QLFTLFFYIYLYIYIKIGS [CBX3]  median enrichment            10.2
1  QLSLPPQPGSPALESSVLHAEDAPSLDWSGLLPNDIAQRLWSRHPAEWGPRGCQLGALPLAATLWSGRVLHHQEDPILSSVSC [INAFM1]  median enrichment             4.8
2  RGALVSPQSSQAAGSPRQLSGHPVPSAPPSAALCSRPAPPSRGCLGLFTCFPSHINTVFPLLSYNSPTAHSPPH [TNFSF12]  median enrichment            8.64

Q: Which median enrichment is listed for YEDPPEE [IGF1] ?
Result: 2.17

Q: Which median enrichment is listed for WALHPARS [IQCD] ?
Result: 0.961

Q: Which median enrichment is listed for YIFYSHSVVQSSALGIYLCSQRSNSHLLYCLCLKEFESFLIFIIHLRTRDPCLAVWSKADYAAWRQDSDRASERAKSCQKETE [GABRA1] ?
Result: 10.4

Q: Which median enrichment is listed for YMQRPRRAALTTRFIF [EWSR1] ?
Result: 6.81

Q: Which median enrichment is listed for WLYESFCHKVPKRRGMGRVPQHVVTA [DSN1] ?
Result: 11

Q: Which median enrichment is listed for YQLFAISCTQTCVIYAPGNQ [MAST2] ?
Result: 7.02

Q: Which median enrichment is listed for DQPHSAQEAASGVGAQRGTAASSTAGCGAAGPGPSAWAAEYIFYLSETSIFLGSNPTCHHVDISSYLTMLSLLGAVLVGPGPC [BAP1] ?
Result: 4.59

Q: Which median enrichment is listed for RDVQDL [ZMPSTE24] ?
Result: 0.177

Q: Which median enrichment is listed for APSCLSRCDRARPKPGCTLLDWASLHCLGKSAEGPKLLRGLRLVPTPKLVCSLPLPARVSGPRSIENTTTMARWKGLLVPASS [MLST8] ?
Result: 5.58

Q: Which median enrichment is listed for RKGGSYSQAAM [HLA-G] ?
Result: 0.441

Q: Which median enrichment is listed for RRKEFCKETIRFVKDILHNI [PPP1CB] ?
Result: 7.66

Q: Which median enrichment is listed for LDPQVPLSKAENVHIPHWHFPKDKNCPRHILSV [VSX1] ?
Result: 10

Q: Which median enrichment is listed for SSKEVILFCLLIIM [CHMP2B] ?
Result: 6.82

Q: Which median enrichment is listed for QGNPRSNQGGGS [POLA1] ?
Result: 0.576

Q: Which median enrichment is listed for WMVLSAGSPLRSGQRKMGGCSSPPQHNDQPPS [NLRP12] ?
Result: 13.1

Q: Which median enrichment is listed for LGLLHLPPSYLVPCRAPGLFGGTLGCTSGLPAPAAWAPPS [REEP4] ?
Result: 5.64
